- Test system: 855422-203-R-J1-PDC complex spheroids, viability
- assayComment: Anticancer human tumor 855422-203-R-J1-PDC patient-derived bladder carcinoma cell line growth inhibition [CLK]
- conditionDetails: second compound 1 µM; first compound 0.0316 µM; active compounds read low
readoutLabel: viability, T/C (%)
// return numeric value only (unit: %, not printed)

Consider the following illustrative entries.
molecule	experimentalSystem	obsValue
CCc1c2c(nc3ccc(O)cc13)-c1cc3c(c(=O)n1C2)COC(=O)[C@]3(O)CC + CNC(=O)c1ccc(Nc2nc(OC3CCCC3)c3c(-c4ccc5nc(C)oc5c4)c[nH]c3n2)c(OC)c1	855422-203-R-J1-PDC complex spheroids, viability	7.3
CCN1CCN(Cc2ccc(Nc3ncc(F)c(-c4cc(F)c5nc(C)n(C(C)C)c5c4)n3)nc2)CC1 + CN1CCN(c2cc(C(=O)Nc3cc4cc(-c5cnn(C)c5)ccc4cn3)ccn2)CC1	855422-203-R-J1-PDC complex spheroids, viability	1.18
CC1(C)CCC(CN2CCN(c3ccc(C(=O)NS(=O)(=O)c4ccc(NCC5CCOCC5)c([N+](=O)[O-])c4)c(Oc4cnc5[nH]ccc5c4)c3)CC2)=C(c2ccc(Cl)cc2)C1 + CN1CCN(c2cc(C(=O)Nc3cc4cc(-c5cnn(C)c5)ccc4cn3)ccn2)CC1	855422-203-R-J1-PDC complex spheroids, viability	0.26
C=C(F)C(=O)N1CCN(c2nc(OCC3CCCN3C)nc3c2CCN(c2cccc4cccc(Cl)c24)C3)CC1CC#N (stereo not given) + CN1CCN(c2cc(C(=O)Nc3cc4cc(-c5cnn(C)c5)ccc4cn3)ccn2)CC1	855422-203-R-J1-PDC complex spheroids, viability	0.29
Nc1ccccc1NC(=O)c1ccc(CNC(=O)OCc2cccnc2)cc1 + CNC(=O)c1ccc(Nc2nc(OC3CCCC3)c3c(-c4ccc5nc(C)oc5c4)c[nH]c3n2)c(OC)c1	855422-203-R-J1-PDC complex spheroids, viability	18.5

Request: Sample CC(CO)NC(=O)c1cc(-c2ccc(Cl)cc2)nn(-c2cnn(C)c2)c1=O (stereo not given) + CN1CCN(c2cc(C(=O)Nc3cc4cc(-c5cnn(C)c5)ccc4cn3)ccn2)CC1 — what was its viability, T/C?
Result: 0.24

Request: Sample CC(CO)NC(=O)c1cc(-c2ccc(Cl)cc2)nn(-c2cnn(C)c2)c1=O (stereo not given) + CNC(=O)c1ccc(Nc2nc(OC3CCCC3)c3c(-c4ccc5nc(C)oc5c4)c[nH]c3n2)c(OC)c1 — what was its viability, T/C?
Result: 18.8

---

- Test system: 855422-203-R-J1-PDC complex spheroids, viability
- assayComment: Anticancer human tumor 855422-203-R-J1-PDC cell line growth inhibition [CLK];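 note: spheroids exposed to drugs for seven days before readout; 100% = DMSO vehicle control wells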
- conditionDetails: second compound 1 µM; first compound 0.1 µM; active compounds read low
Please use the following viability, T/C ranges when assigning a class: low (below 0.2%), middle (0.2% to below 0.6%), high (0.6% or more)

compound	classAssignment
COc1ccc([C@@H](O)c2cc(-c3ncnc4cc(N5CCOCC5)ccc34)c(F)cc2Cl)nn1 + CNC(=O)c1ccc(Nc2nc(OC3CCCC3)c3c(-c4ccc5nc(C)oc5c4)c[nH]c3n2)c(OC)c1	high
COC1C=CCC(C)C(C)S(=O)(=O)NC(=O)c2ccc3c(c2)N(CC2CCC21)CC1(CCCc2cc(Cl)ccc21)CO3 (stereo not given) + CN1CCN(c2cc(C(=O)Nc3cc4cc(-c5cnn(C)c5)ccc4cn3)ccn2)CC1	low
C#Cc1c(F)ccc2cc(O)cc(-c3ncc4c(N5CC6CCC(C5)N6)nc(OCC56CCCN5CC(F)C6)nc4c3F)c12 (stereo not given) + CN1CCN(c2cc(C(=O)Nc3cc4cc(-c5cnn(C)c5)ccc4cn3)ccn2)CC1	middle
O=C(c1cc(Cc2n[nH]c(=O)c3ccccc23)ccc1F)N1CCN(C(=O)C2CC2)CC1 + CN1CCN(c2cc(C(=O)Nc3cc4cc(-c5cnn(C)c5)ccc4cn3)ccn2)CC1	middle
COc1ccc([C@@H](O)c2cc(-c3ncnc4cc(N5CCOCC5)ccc34)c(F)cc2Cl)nn1 + CN1CCN(c2cc(C(=O)Nc3cc4cc(-c5cnn(C)c5)ccc4cn3)ccn2)CC1	low
CCCS(=O)(=O)Nc1ccc(F)c(C(=O)c2c[nH]c3ncc(-c4ccc(Cl)cc4)cc23)c1F + CNC(=O)c1ccc(Nc2nc(OC3CCCC3)c3c(-c4ccc5nc(C)oc5c4)c[nH]c3n2)c(OC)c1	high

Request: Determine which band this compound sits in: COc1c(OCCCN2CCOCC2)ccc2c3n(c(=NC(=O)c4cnc(N)nc4)nc12)CCN3 + CN1CCN(c2cc(C(=O)Nc3cc4cc(-c5cnn(C)c5)ccc4cn3)ccn2)CC1
Result: low

Request: Determine which band this compound sits in: CC(=O)O[C@H]1C(=O)[C@@]2(C)[C@H]([C@H](OC(=O)c3ccccc3)[C@]3(O)C[C@H](OC(=O)[C@H](O)[C@@H](NC(=O)c4ccccc4)c4ccccc4)C(C)=C1C3(C)C)[C@]1(OC(C)=O)CO[C@@H]1C[C@@H]2O + CN1CCN(c2cc(C(=O)Nc3cc4cc(-c5cnn(C)c5)ccc4cn3)ccn2)CC1
Result: low

Request: Determine which band this compound sits in: CC(=O)O[C@H]1C(=O)[C@@]2(C)[C@H]([C@H](OC(=O)c3ccccc3)[C@]3(O)C[C@H](OC(=O)[C@H](O)[C@@H](NC(=O)c4ccccc4)c4ccccc4)C(C)=C1C3(C)C)[C@]1(OC(C)=O)CO[C@@H]1C[C@@H]2O + CNC(=O)c1ccc(Nc2nc(OC3CCCC3)c3c(-c4ccc5nc(C)oc5c4)c[nH]c3n2)c(OC)c1
Result: high

Request: Determine which band this compound sits in: CC(CO)NC(=O)c1cc(-c2ccc(Cl)cc2)nn(-c2cnn(C)c2)c1=O (stereo not given) + CN1CCN(c2cc(C(=O)Nc3cc4cc(-c5cnn(C)c5)ccc4cn3)ccn2)CC1
Result: middle

---

- Test system: 855422-203-R-J1-PDC complex spheroids, viability
- assayComment: Anticancer human tumor 855422-203-R-J1-PDC cell line growth inhibition [CLK];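 note: spheroids exposed to drugs for seven days before readout; 100% = DMSO vehicle control wells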
- conditionDetails: second compound 0.316 µM; first compound 3.16 µM; active compounds read low
readoutLabel: viability, T/C (%)
// return numeric value only (unit: %, not printed)

Consider the following illustrative entries.
molecule	viability, T/C [%]
O=c1[nH]cc(F)c(=O)[nH]1 + CN1CCN(c2cc(C(=O)Nc3cc4cc(-c5cnn(C)c5)ccc4cn3)ccn2)CC1	14.1
C=CC(=O)N1CCN(c2nc(=O)n(-c3c(C)ccnc3C(C)C)c3nc(-c4c(O)cccc4F)c(F)cc23)C(C)C1 (stereo not drawn) + CNC(=O)c1ccc(Nc2nc(OC3CCCC3)c3c(-c4ccc5nc(C)oc5c4)c[nH]c3n2)c(OC)c1	22.7

Consider the record given below.
Request: Sample O=C(c1cc(Cc2n[nH]c(=O)c3ccccc23)ccc1F)N1CCN(C(=O)C2CC2)CC1 + CNC(=O)c1ccc(Nc2nc(OC3CCCC3)c3c(-c4ccc5nc(C)oc5c4)c[nH]c3n2)c(OC)c1 — what was its viability, T/C?
Result: 21.9

---

Let's look at some molecules and their measured viability, T/C.
- System: 855422-203-R-J1-PDC complex spheroids, viability
- assayComment: Anticancer human tumor 855422-203-R-J1-PDC cell line growth inhibition [CLK];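 note: spheroids exposed to drugs for seven days before readout; 100% = DMSO vehicle control wells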
- conditionDetails: second compound 1 µM; first compound 0.1 µM; active compounds read low
// return numeric value only (unit: %, not printed)

Consider the following illustrative entries.
molecule	unitsSymbol	viability, T/C
C=C(F)C(=O)N1CCN(c2nc(OCC3CCCN3C)nc3c2CCN(c2cccc4cccc(Cl)c24)C3)CC1CC#N (stereo not drawn) + CNC(=O)c1ccc(Nc2nc(OC3CCCC3)c3c(-c4ccc5nc(C)oc5c4)c[nH]c3n2)c(OC)c1	%	15.8
CC(Nc1ccc2c(c1)OCCn1cc(N3C(=O)OCC3C(F)F)nc1-2)C(N)=O (stereo not drawn) + CN1CCN(c2cc(C(=O)Nc3cc4cc(-c5cnn(C)c5)ccc4cn3)ccn2)CC1	%	0.12

Request: Form: Entry = CCCS(=O)(=O)Nc1ccc(F)c(C(=O)c2c[nH]c3ncc(-c4ccc(Cl)cc4)cc23)c1F + CN1CCN(c2cc(C(=O)Nc3cc4cc(-c5cnn(C)c5)ccc4cn3)ccn2)CC1 | System = 855422-203-R-J1-PDC complex spheroids, viability | viability, T/C = ____
Result: 0.18

---

- Tested on: 855422-203-R-J1-PDC complex spheroids, viability
- assayComment: Anticancer human tumor 855422-203-R-J1-PDC cell line growth inhibition [CLK]; active = viability on the fitted dose curve at most 10% of control; inactive = the rest;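 note: spheroids exposed to drugs for seven days before readout; 100% = DMSO vehicle control wells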
- conditionDetails: second compound 0.316 µM; first compound 3.16 µM
Pick one: yes (1) (active), no (0) (inactive)

Use these answered entries as a reference point.
compound	classAssignment
COc1ccc([C@@H](O)c2cc(-c3ncnc4cc(N5CCOCC5)ccc34)c(F)cc2Cl)nn1 + CN1CCN(c2cc(C(=O)Nc3cc4cc(-c5cnn(C)c5)ccc4cn3)ccn2)CC1	yes (1)
COc1ccc([C@@H](O)c2cc(-c3ncnc4cc(N5CCOCC5)ccc34)c(F)cc2Cl)nn1 + CNC(=O)c1ccc(Nc2nc(OC3CCCC3)c3c(-c4ccc5nc(C)oc5c4)c[nH]c3n2)c(OC)c1	no (0)

Please turn your attention to the following entry.
Request: GET /call?item= CC1COCCN1c1cc(C2(S(C)(=N)=O)CC2)nc(-c2ccnc3[nH]ccc23)n1 (stereo not drawn) + CN1CCN(c2cc(C(=O)Nc3cc4cc(-c5cnn(C)c5)ccc4cn3)ccn2)CC1 returns the recorded outcome of this test.
Result: yes (1)
